Let's look at some compounds and their measured growth.
- Test system: UO-31 renal
- METHOD DESCRIPTION: NCI-60 one-dose screen, 48 h (100 = growth as untreated, 0 = no growth, -100 = all killed)
- ASSAY SETUP: 10 µM unless noted
This is part of a sample that, as a whole, favours compounds with a hit. Of some 83,000 tested, about 20% had one in any assay. The source made the active and inactive calls. Rule for the calls: active = growth percent below 10; inactive = the rest.

>  <CHEM SMILES>
CC(C)(C)c1nn(-c2ccccc2)c2c1COCN2Cc1ccc(Cl)cc1

>  <growth>
85.2% (inactive)

$$$$
>  <CHEM SMILES>
NC(=O)CN1C(=O)c2ccccc2C1=O

>  <growth>
90.4% (inactive)

$$$$
>  <CHEM SMILES>
Oc1c(CCl)cc(Cl)cc1Cc1cc(Cl)cc(Cc2cc(Cl)cc(CCl)c2O)c1O

>  <growth>
32% (inactive)

$$$$
>  <CHEM SMILES>
Nc1ccccc1NS(=O)(=O)c1ccc(Cl)cc1

>  <growth>
83.9% (inactive)

$$$$

* * *

- Test system: K-562 leukemia
- METHOD DESCRIPTION: NCI-60 one-dose screen, 48 h
- ASSAY SETUP: 10 µM unless noted
Compounds without any hit were thinned out: in the full panel of roughly 83,000, 20% have a hit. Activity calls are given as the source filed them. How the source made its calls: active means growth percent below 10; inactive means the rest.
Outcomes: active, inactive

>  <COMPOUND>
O=c1nc(-c2ccccc2)c2cc(-c3ccc(N4CCCC4)nc3)ccc2[nH]1

>  <TESTED ON>
K-562 leukemia

>  <CLASS ASSIGNMENT>
inactive

$$$$
>  <COMPOUND>
C=CCn1c(SCC(=O)Nc2ccc(C(=O)/C=C/c3cc(OC)c(OC)c(OC)c3)cc2)nnc1-c1ccc(Cl)cc1

>  <TESTED ON>
K-562 leukemia

>  <CLASS ASSIGNMENT>
active

$$$$
>  <COMPOUND>
O=c1[nH]c(-c2cccc(F)c2)cc2cc(F)ccc12

>  <TESTED ON>
K-562 leukemia

>  <CLASS ASSIGNMENT>
inactive

$$$$
>  <COMPOUND>
CC(C)C1=C[C@@]23CC[C@H]4[C@](C)(COCCC#N)CCC[C@]4(C)[C@H]2C[C@@H]1[C@@H]1[C@H]3[C@@H](OCCC#N)CC[C@@H]1OCCC#N

>  <TESTED ON>
K-562 leukemia

>  <CLASS ASSIGNMENT>
inactive

$$$$
>  <COMPOUND>
COc1cc(F)c(-c2nc3c(C)cccc3n2Cc2c(F)cccc2F)c(F)c1

>  <TESTED ON>
K-562 leukemia

>  <CLASS ASSIGNMENT>
inactive

$$$$
>  <COMPOUND>
COc1ccc(-c2cn(-c3ccc(Cl)cc3)c(=S)[nH]2)cc1OC

>  <TESTED ON>
K-562 leukemia

>  <CLASS ASSIGNMENT>
inactive

$$$$
>  <COMPOUND>
Cc1ccc2nc3nc4ccc[nH]c4cc3c2c1

>  <TESTED ON>
K-562 leukemia

>  <CLASS ASSIGNMENT>
inactive

$$$$
>  <COMPOUND>
O=C(Nc1cc(=O)[nH]c(=O)[nH]1)C(Cl)Cl

>  <TESTED ON>
K-562 leukemia

>  <CLASS ASSIGNMENT>
inactive

$$$$
>  <COMPOUND>
COc1cc(C)ccc1Oc1nc(Nc2ccc(N3CCOCC3)cc2)ncc1N=Cc1cc(C(F)(F)F)cc(C(F)(F)F)c1

>  <TESTED ON>
K-562 leukemia

>  <CLASS ASSIGNMENT>
inactive

$$$$
>  <COMPOUND>
COc1cc(/C=C/C(=O)c2ccc(NC(=O)CSc3nnc(-c4cc(OC)c(OC)c(OC)c4)n3-c3ccccc3)cc2)cc(OC)c1OC

>  <TESTED ON>
K-562 leukemia

>  <CLASS ASSIGNMENT>
active

$$$$
>  <COMPOUND>
Cc1cccc(C)c1Nc1nnc(-c2ccc(F)cc2)o1

>  <TESTED ON>
K-562 leukemia

>  <CLASS ASSIGNMENT>
inactive

$$$$
>  <COMPOUND>
O=C(O)c1cn(C2CC2)c2cc(N3CCN(C(=O)CSc4nnc(-c5ccc(Cl)cc5)n4-c4ccccc4)CC3)c(F)cc2c1=O

>  <TESTED ON>
K-562 leukemia

>  <CLASS ASSIGNMENT>
inactive

$$$$
>  <COMPOUND>
Nn1c(SCC(=O)Nc2ccc(Cl)cc2)nnc1-c1cc(F)c(Cl)cc1Cl

>  <TESTED ON>
K-562 leukemia

>  <CLASS ASSIGNMENT>
inactive

$$$$
>  <COMPOUND>
C=C1C(=O)O[C@H]2[C@H]1CC/C(C=Nc1c(N)cc(C(F)(F)F)cc1Br)=C\CC[C@@]1(C)O[C@@H]21

>  <TESTED ON>
K-562 leukemia

>  <CLASS ASSIGNMENT>
active

$$$$
>  <COMPOUND>
Cc1nc2sc(C(=O)Nc3cccc(Cl)c3C)c(N)c2cc1C(C)O (stereo not drawn)

>  <TESTED ON>
K-562 leukemia

>  <CLASS ASSIGNMENT>
active

$$$$
>  <COMPOUND>
C=C(C)[C@@H]1CCC=C2CC[C@]3(C)[C@H](CC[C@@H]4[C@@]5(C)CCCNC(C)(C)[C@@H]5CC[C@]43C)[C@H]21

>  <TESTED ON>
K-562 leukemia

>  <CLASS ASSIGNMENT>
active

$$$$
>  <COMPOUND>
CCOC(=O)c1c(C)nc2c(c1N)/C(=C/c1cccs1)C(=O)N2Cc1ccccc1

>  <TESTED ON>
K-562 leukemia

>  <CLASS ASSIGNMENT>
inactive

$$$$
>  <COMPOUND>
COc1ccc2[nH]c(-c3ccccc3)c(C=C(C#N)C#N)c2c1

>  <TESTED ON>
K-562 leukemia

>  <CLASS ASSIGNMENT>
active

$$$$
>  <COMPOUND>
O=[N+]([O-])c1ccc(Oc2ccc(-c3ccccc3)cc2)cc1

>  <TESTED ON>
K-562 leukemia

>  <CLASS ASSIGNMENT>
inactive

$$$$
>  <COMPOUND>
CSc1cccc(NC(=O)Nc2nc3c(C)cccc3s2)c1

>  <TESTED ON>
K-562 leukemia

>  <CLASS ASSIGNMENT>
inactive

$$$$
>  <COMPOUND>
OCCNc1nc(NCCO)nc(Nc2ccc(C3=NN(c4cc(Cl)cc(Cl)c4)C(c4ccc(Cl)cc4)C3)cc2)n1 (stereo not drawn)

>  <TESTED ON>
K-562 leukemia

>  <CLASS ASSIGNMENT>
active

$$$$
>  <COMPOUND>
COc1ccc2[nH]c(=O)c(/C=C/C(=O)c3ccccc3OC)cc2c1

>  <TESTED ON>
K-562 leukemia

>  <CLASS ASSIGNMENT>
active

$$$$
>  <COMPOUND>
COC(=O)/C=C1\SC(=Nc2cccc(OC)c2)N(CCc2c[nH]c3ccccc23)C1=O

>  <TESTED ON>
K-562 leukemia

>  <CLASS ASSIGNMENT>
inactive

$$$$
